test system: MS2 coat protein; assay: apparent KD of MS2 coat protein; designed switch direction (-1 OFF switch, 1 ON switch): -1; higher = weaker reporter binding; settings: input ligand: FMN 200 uM
Decision: apparent KD of MS2 coat protein compared against 60 nM; not below it gives met, below it gives not met.

[
  {
    "biopolymer sequence": "GAAAAGGUAGAGGAUAUUUCAGAUCAAAGCUGCAAAGAAGGCUGCACAUGAGGAUCACCCAUGUGGUCUUAAAA [Mod of Quesina 8 - Jieux - Exclusion 6] (Eterna round: R97, puzzle: Exclusion 6)",
    "answer label": "met"
  },
  {
    "biopolymer sequence": "AGCAGACGAGGAUAUGAUAAUUAAUACAUGAGGAUCACCCAUGUAAUACUGAUCCAUGGAUCAGAAGGCGUCUGCU [E5/4-A1] (Eterna round: R97, puzzle: Exclusion 5)",
    "answer label": "not met"
  },
  {
    "biopolymer sequence": "CUCCCUCGGGUUAGGAUAUGCUACUGGCUUCAGAUGCAGAAGGAACAUGAGGAUCACCCAUGUACCAAAUAAAA [BmEX4 B.15] (Eterna round: R97, puzzle: Brourd's mod of Exclusion 4)",
    "answer label": "not met"
  },
  {
    "biopolymer sequence": "AGGUGUAGAGGAUAUCUCUUCUCUCACAUGAGGAUCACCCAUGUCCUGGGUACCUGGGAGAGAGAAGGCUACACCA [Omei Ex5 D12] (Eterna round: R97, puzzle: Exclusion 5)",
    "answer label": "met"
  },
  {
    "biopolymer sequence": "AAAGGGAAUGAGGAUAUCGUAUUGGAUAUAGUGCGAGAAGGCAUUACAUGAGGAUCACCCAUGUUUUGUUGGGA [JR_Ex6_Sub006] (Eterna round: R97, puzzle: Exclusion 6)",
    "answer label": "met"
  },
  {
    "biopolymer sequence": "AGGGACGGCUGAGGAUAUAUGUAGAGUGAGAUAGUAGAAGGCAGACAUGAGGAUCACCCAUGUAUCGGUCCUCAUAUCUCGUAU [Default title] (Eterna round: R96, puzzle: Exclusion NG 1)",
    "answer label": "not met"
  },
  {
    "biopolymer sequence": "GAGUGACAUGAGGAUCACCCAUGUGAGGAUAUCGGACGGACCUAGUUAACUUCCGCCGCGAGAAGGCACAUCGG [Exclusion 1 V23] (Eterna round: R96, puzzle: Exclusion 1)",
    "answer label": "met"
  },
  {
    "biopolymer sequence": "AAUAACAGAGGAUAUGCGAAUAAAUAAAACUUUUUUUUUUAACAUGAGGAUCACCCAUGUAGAAGGCUGAUAUU [Ex2 #21] (Eterna round: R97, puzzle: Exclusion 2)",
    "answer label": "not met"
  },
  {
    "biopolymer sequence": "GUGAAACAUGAGGAUCACCCAUGUCAGGAUAUGCAUCCAGUUCACCUAUAAAGACGGUGUAGAAGGGACAAUAA [Eternabot (Original) Solution 7] (Eterna round: R97, puzzle: Exclusion 1)",
    "answer label": "not met"
  }
]
